B1: TMEM192 (parent)
chain: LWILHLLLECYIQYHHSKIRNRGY

# Variants of: B1
# TEST METHOD NOTES: protein stability index of a GFP-peptide fusion (GPS, HEK-293T) (PSI 1-6); higher = more stable;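 note: lentivirally expressed fusions sorted by FACS into six bins by GFP to DsRed ratio, PSI derived from sequencing read proportions per bin multiplied by bin number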
# EXPERIMENTAL SETUP: c terminus: a fixed tail appended
OUTCOME MEASURE: protein stability index

[[record]]
sequence_record = "EWILHLLLECYIQYHHSKIRNRGY"
recorded_value = 3.02

[[record]]
sequence_record = "LWILHLLWECYIQYHHSKIRNRGY"
recorded_value = 2.98


Then this variant:
The variant identified as LWICHLLLECYIQYHHSKIRNRGY registered its protein stability index at 2.96
